Origin of values: patent US20240409645A1

Some binders, each annotated with its measured koff.
# assay system: T1, human common cytokine receptor γ-chain (γc; IL-2Rγ; CD132), recombinant protein (human, UniProt P31785 23-262)
# T1 construct: also called human IL-2R subunit CD132
# T1 sequence: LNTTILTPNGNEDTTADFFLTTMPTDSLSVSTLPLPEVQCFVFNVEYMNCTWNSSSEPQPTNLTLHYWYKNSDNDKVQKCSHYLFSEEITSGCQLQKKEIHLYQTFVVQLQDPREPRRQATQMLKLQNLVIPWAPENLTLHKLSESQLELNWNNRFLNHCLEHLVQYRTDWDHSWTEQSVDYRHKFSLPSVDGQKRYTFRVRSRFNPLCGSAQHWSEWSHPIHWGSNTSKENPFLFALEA
# test protocol: P.E. off-rate SPR
Just the number in s⁻¹, nothing appended.

Worked examples, 6 binders total:
binder | koff / s⁻¹
29-MP04H02 VHH (periplasmic extract) (VHH, soluble VHH in periplasmic extract) VHH: QVQLVESGGGLVQAGGSLRLACVASGLTFDNYYMGWFRQAPGKEREFVAGIIWNGDHTAYADSIKGRFTISRDNAKNTAYLRMNSLKPEDTAVYYCAATFWIERATTPDIGQYAYWGQGTQVTVSS | 0.00625
34-MP04A12 VHH (periplasmic extract) (VHH, soluble VHH in periplasmic extract) VHH: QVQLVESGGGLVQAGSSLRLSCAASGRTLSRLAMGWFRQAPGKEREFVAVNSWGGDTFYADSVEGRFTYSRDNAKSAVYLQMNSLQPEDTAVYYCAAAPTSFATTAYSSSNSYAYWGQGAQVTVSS | 0.000333
27-MP04G01 VHH (periplasmic extract) (VHH, soluble VHH in periplasmic extract) VHH: QVQLVESGGGLVQAGGSLTLSCAAPGRTFGTDVVGWFRQAPGKEREFVASISRSGDGIYYDDSVKGRFTISRNNAWNTVNLQMNSLKVEDTAVYYCAAGDGWSTYDYWGQGTQVTVSS | 0.00131
38-MP07A11 VHH (periplasmic extract) (VHH, soluble VHH in periplasmic extract) VHH: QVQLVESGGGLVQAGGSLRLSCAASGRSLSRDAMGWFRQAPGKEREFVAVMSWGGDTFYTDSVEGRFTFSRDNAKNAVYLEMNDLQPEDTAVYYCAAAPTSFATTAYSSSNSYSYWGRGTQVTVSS | 0.00235
32-MP04A08 VHH (periplasmic extract) (VHH, soluble VHH in periplasmic extract) VHH: QVQLVESGGGLVQAGGSLRLSCAASGRTFGSTAVGWFRQVPGKEREFVSAINRSGSATTYADSVKGRFTISRDNAKNTVYLQMNSLTPEDTGVYYCAADSLPYGRPYYFQRSAGEYDYWGQGTQVTVSS | 0.0616
36-MP07F02 VHH (periplasmic extract) (VHH, soluble VHH in periplasmic extract) VHH: QVQLVESGGGLVQAGGSLRLSCAASGRTLSRYAMGWFRQAPGSEREFVAASSWGGDTFYADSVEGRFTFSRDNAKNAVYLQMNSLQPEDTAAYYCAAAPTSFPTTAYSSSNSYAYWGQGTQVTVSS | 0.00331

Give the reported koff for this binder. 37-MP07F09 VHH (periplasmic extract) (VHH, soluble VHH in periplasmic extract) VHH: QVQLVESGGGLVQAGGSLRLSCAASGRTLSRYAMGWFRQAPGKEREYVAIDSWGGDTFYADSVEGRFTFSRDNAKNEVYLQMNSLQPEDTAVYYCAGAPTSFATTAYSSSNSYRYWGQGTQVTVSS
0.00126

Give the reported koff for this binder. 28-MP04D02 VHH (periplasmic extract) (VHH, soluble VHH in periplasmic extract) VHH: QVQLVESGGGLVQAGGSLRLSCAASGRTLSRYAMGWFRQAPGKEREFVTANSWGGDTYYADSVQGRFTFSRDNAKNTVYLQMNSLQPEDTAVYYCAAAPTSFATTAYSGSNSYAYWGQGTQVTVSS
0.0088
